Tested on: NCI/ADR-RES ovarian
Assay: NCI tumour cell line growth inhibition, 48 h; in the data active means GI50 below about 0.43 µM; inactive means the rest
Possible outcomes: active, inactive

>>> labelvalue("O=C(CCCCCCC(=O)N/N=C/c1ccc(N(c2ccccc2)c2ccccc2)cc1)NO")
"inactive"
>>> labelvalue("O=C(N/N=C/c1coc2ccc(Cl)cc2c1=O)c1ccncc1")
"inactive"
>>> labelvalue("COc1ccc(Nc2c3c4c(cccc4[nH]c2=O)C(=O)c2ccccc2-3)cc1")
"active"

###

Test system: M19-MEL melanoma
Assay: NCI tumour cell line growth inhibition, 48 h
resultType: TGI

>>> result("O=c1cc2n(c(=O)[nH]1)C1OC(C(O)C1O)[C@H]2CCO (stereo partly drawn)")
"> 100 µM"
>>> result("COc1ccc(NC(=O)CC/C(CC(=O)c2ccccc2Cl)=N\\Nc2nnc(C)n2N)cc1")
"> 100 µM"
>>> result("O=C1NC2OCC(O)C(O1)C2O (stereo not drawn)")
"> 100 µM"
>>> result("CCOc1ccc(C2=C(Cl)c3cc(OC)c(OC)cc3C2Cl)cc1 (stereo not drawn)")
"> 100 µM"
>>> result("CN(C)c1ccc(/C=C/C(=O)c2ccccc2)cc1Br")
"37.1 µM"
>>> result("Cc1ccc(S(=O)(=O)c2c(N)c3nccn3c3nc4ccccc4nc23)cc1")
"> 100 µM"
>>> result("COC(=O)NNc1c([N+](=O)[O-])cnn(-c2ccccc2)c1=O")
"3.43 µM"
>>> result("C=C1C(=O)OC2C[C@H](C)C3CC(=O)C(C)=C3CC12 (stereo partly drawn)")
"27.8 µM"

###

Tested on: RPMI-8226 leukemia
Assay: NCI tumour cell line growth inhibition, 48 h
Recorded TGI values for a group of molecules are listed next.
resultType: TGI

>>> result("Nc1ccn([C@H]2CO[C@@H](CO)O2)c(=O)n1")
"> 100 µM"
>>> result("Cc1ccccc1N=Cc1ccc(N(CCC#N)S(=O)(=O)c2ccccc2)cc1")
"> 100 µM"
>>> result("C=CC1(c2ccc3ccccc3c2)OCC(CC)(CC)CO1")
"80.4 µM"
>>> result("COc1ccc(-c2cc(-c3ccc(O)cc3)nc3nc(=S)[nH]c(N)c23)cc1")
"25.7 µM"
>>> result("CCOC(=O)C1=C(OS(=O)(=O)C(F)(F)F)CCCC1")
"> 100 µM"
>>> result("CC(=O)Nc1ccc(C2=N/C(=C\\c3ccc(Cl)c(Cl)c3)C(=O)O2)cc1")
"> 100 µM"
>>> result("CN(CCCCCl)P(=O)(OCc1ccc([N+](=O)[O-])o1)C(F)(F)c1ccc(CC(=O)N[C@@H](CC(=O)O)C(=O)N[C@@H](Cc2ccc(C(F)(F)P(=O)(OCc3ccc([N+](=O)[O-])o3)N(C)CCCCCl)cc2)C(N)=O)cc1 (some centres not stated)")
"71.9 µM"
>>> result("Fc1ccc(-c2ncn(C3CCNCC3)c2-c2ccnc(Oc3ccccc3)n2)cc1")
"> 25 µM"
>>> result("CC1(C)CC(=O)C(CC(C(=O)C(=O)Nc2cc(C(F)(F)F)ccc2Cl)C(=O)c2ccco2)C(=O)C1 (configuration not stated)")
"> 100 µM"
>>> result("O=C(Cn1c(C(=O)/C=C/c2ccco2)nc2ccccc21)c1ccc(Cl)cc1")
"32.9 µM"
>>> result("COc1ccc(-c2nc(N)c(C#N)c3c2CCSc2ccc(C)cc2-3)cc1OC")
"7.09 µM"
>>> result("CN(C)C1(C(=O)O)CC1")
"> 100 µM"
>>> result("O=C1ON(Cc2ccccc2)C(c2ccccc2)N1c1ccccc1 (configuration not stated)")
"> 100 µM"
>>> result("O=c1[nH]c(=O)n(C2CC(O)C(COP(=O)(O)OC3CC(n4cc(F)c(=O)[nH]c4=O)OC3COP(=O)(O)OC3CC(n4cc(F)c(=O)[nH]c4=O)OC3COP(=O)(O)OC3CC(n4cc(F)c(=O)[nH]c4=O)OC3COP(=O)(O)OC3CC(n4cc(F)c(=O)[nH]c4=O)OC3COP(=O)(O)OC3CC(n4cc(F)c(=O)[nH]c4=O)OC3COP(=O)(O)OC3CC(n4cc(F)c(=O)[nH]c4=O)OC3COP(=O)(O)OC3CC(n4cc(F)c(=O)[nH]c4=O)OC3COP(=O)(O)OC3CC(n4cc(F)c(=O)[nH]c4=O)OC3COP(=O)(O)OC3CC(n4cc(F)c(=O)[nH]c4=O)OC3CO)O2)cc1F (configuration not stated)")
"> 50 µM"
>>> result("CCOC(=O)C1c2[nH]c3ccccc3c2CCN1C(=O)c1ccco1 (configuration not stated)")
"> 10 µM"
>>> result("O=S(=O)(O)c1ccc(Cl)cc1.[Cd]")
"> 100 µM"
>>> result("COc1cc(C2c3cc4c(cc3[C@H](NC(=O)c3cccs3)C3COC(=O)[C@H]23)OCO4)cc(OC)c1OC (some centres not stated)")
"19.3 µM"
>>> result("COC(=O)c1cc(C)n2c1CS[C@@H]2c1ccccc1")
"84.5 µM"
>>> result("Cc1ccc(S(=O)(=O)NC(=O)C2(Br)S(=O)(=O)OCCOS2(=O)=O)cc1")
"> 100 µM"
>>> result("CC(C)(C)c1ccc(-c2nc3ccccc3c(=O)o2)cc1")
"93.3 µM"
>>> result("O=C1CSC(=S)N1c1ccc(F)cc1F")
"66.4 µM"
>>> result("CC(=O)c1c2c(cc3c1CC1(Cc4cc5c(cc4C1=O)CCC5)C3)CCC2 (configuration not stated)")
"> 92.9 µM"
>>> result("COc1ccc(C(=O)/C(=N/Nc2ccccc2)c2ccc(OC)cc2)cc1")
"> 100 µM"
>>> result("O=C(CSc1nc2ccc([N+](=O)[O-])cc2[nH]1)Nc1cccc(Cl)c1")
"> 27.8 µM"
>>> result("COc1cc(C(=O)NC2CCN(C)CC2)ccc1Nc1ncc2c(n1)N(C1CCCC1)CC(F)(F)C(=O)N2C")
"8.33 µM"
>>> result("COc1c(C(=O)/C(=N/Nc2ccccc2)C(C)=O)c(O)c(OC)c2occc12")
"> 100 µM"
>>> result("CCc1ccc(CCC(=O)O)nc1")
"> 100 µM"

###

Tested on: RXF 393 renal
Experiment: NCI tumour cell line growth inhibition, 48 h
resultType: TGI (µM)

>>> numericreadout("CSC(=S)N/N=C/c1ccccc1")
76.9
>>> numericreadout("O=C1Nc2ccccc2C1(c1ccc(O)c(F)c1)c1ccc(O)c(F)c1")
10.5
>>> numericreadout("Cc1c2ccccc2c(CO)c2cc(F)c3ccccc3c12")
61.5
>>> numericreadout("CC1(C)Cc2cccc(OCC(O)CN3CCN(c4ccc(F)cc4)CC3)c2O1 (configuration not stated)")
22.6
>>> numericreadout("Cc1cc(C)nc(NS(=O)(=O)c2ccc(NC(=O)c3cccc4c(Nc5ccc(S(=O)(=O)Nc6nc(C)cc(C)n6)cc5)c5ccccc5nc34)cc2)n1")
31.5
>>> numericreadout("C=C1C(=O)O[C@H]2[C@H]1CC/C(C=Nc1ccc(C(F)(F)F)cc1N)=C\\CC[C@@]1(C)O[C@@H]21")
9.22
>>> numericreadout("CCCCCCCCCCCC1=NC(C)(C)CN1CCO")
10.5
>>> numericreadout("Cc1ccc(Cl)cc1Nc1nc(C(F)(F)F)ccc1C(=O)N/N=C/c1c(Cl)cccc1Cl")
3.48
>>> numericreadout("COC(=O)C1=C(C(=O)OC)SC(=C2c3ccsc3-c3sccc32)S1")
41.6
>>> numericreadout("C[N+](C)(C)CCC(=O)N1C/C(=C\\c2ccccc2)C(=O)/C(=C/c2ccccc2)C1")
28.3
>>> numericreadout("C[C@@H]1CCC2[C@@H](C)[C@H](O[C@H]3O[C@@H]4O[C@@]5(C)CCC6[C@H](C)CCC([C@H]3C)[C@]64OO5)O[C@@H]3O[C@@]4(C)CCC1[C@@]23OO4 (some centres not stated)")
21.4
>>> numericreadout("CC(C)(C)C(=O)OCOP(=O)(OCOC(=O)C(C)(C)C)C1CCCN(OC(=O)c2ccccc2)C1=O (configuration not stated)")
4.8
>>> numericreadout("OCCOCCN1CCN(c2nc(N3CCCC3)c3nc(Cl)c(NCc4ccccc4)nc3n2)CC1")
11.8
>>> numericreadout("COc1cc(C2c3cc4c(cc3[C@H](NC(=O)c3cccs3)C3COC(=O)[C@H]23)OCO4)cc(OC)c1OC (some centres not stated)")
0.0543
>>> numericreadout("O=C1C(c2ccc([N+](=O)[O-])cc2)=[N+]([O-])c2ccccc21")
60.4
>>> numericreadout("Oc1ccc2ccccc2c1-c1c(Nc2ccccc2)ccc2ccccc12")
34.3
>>> numericreadout("COCC1C(=O)c2cc3c(cc2C12C=CC1(C=C2)OCCO1)OCO3 (configuration not stated)")
20.9

###

Recorded TGI values for a group of compounds are listed next.
Test system: ACHN renal
Assay: NCI tumour cell line growth inhibition, 48 h
resultType: TGI

>>> result("CCOC(=O)N1CC2(C(=O)OC)C=CC1C(C(=O)OC)C2 (stereo not drawn)")
"> 100 µM"
>>> result("O=C(O)c1cc(N/C=C2\\C(=O)c3ccccc3OC2O)ccc1O (stereo not drawn)")
"82.7 µg/mL"
>>> result("COc1ccc(Nc2c3c4c(cccc4[nH]c2=O)C(=O)c2ccccc2-3)cc1")
"> 100 µM"
